I'd be grateful if you could share measured IC50 (read off the curve) for these entries.
Target: T1, huZIP12-ECD-GST (human, UniProt Q504Y0 24-202)
T1 construct: also called hZIP12-ECD-GST; human ZIP12-ECD-GST; not shown: glutathione S-transferase (GST) tag
T1 sequence (Q504Y0 24-202): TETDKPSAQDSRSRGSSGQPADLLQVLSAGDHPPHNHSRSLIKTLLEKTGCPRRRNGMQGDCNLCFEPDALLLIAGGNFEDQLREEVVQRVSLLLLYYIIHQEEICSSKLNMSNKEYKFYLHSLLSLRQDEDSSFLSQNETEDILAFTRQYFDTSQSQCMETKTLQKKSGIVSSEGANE
Assay: HTRF competition: unlabelled antibody against Tb-labelled 51B12-parent on hZIP12-ECD-GST, detected with anti-GST-XL665

get_value(item= H3_M105P_L2 (antibody, V domains shown, Fc null human IgG1 / human kappa) VH: QVQLVESGGGVVQPGRSLRLSCAASGFTFSDYGMHWVRQAPGKGLEWVAYISSGGTTIYYADTVKGRFTISRDNSKNTLYLQMNSLRAEDTAVYYCARWTNLYAPDYWGQGTTVTVSS VL: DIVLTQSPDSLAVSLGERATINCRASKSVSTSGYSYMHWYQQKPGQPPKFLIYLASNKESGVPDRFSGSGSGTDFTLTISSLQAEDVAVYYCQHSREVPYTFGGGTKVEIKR , readout=IC50 (read off the curve)) returns ~0.2 µg/mL

get_value(item= H2_Y60K_L2 (antibody, V domains shown, Fc null human IgG1 / human kappa) VH: QVQLVESGGGVVQPGRSLRLSCAASGFTFSDYGMHWVRQAPGKGLEWVAYISSGGTTIYKADTVKGRFTISRDNSKNTLYLQMNSLRAEDTAVYYCARWTNLYAMDYWGQGTTVTVSS VL: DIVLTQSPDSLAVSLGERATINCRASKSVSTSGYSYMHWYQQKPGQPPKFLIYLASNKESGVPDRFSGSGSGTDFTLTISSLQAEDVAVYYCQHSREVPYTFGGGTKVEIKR , readout=IC50 (read off the curve)) returns ~0.06 µg/mL

get_value(item= H2_T63Y_VL-par (antibody, V domains shown, Fc null human IgG1 / human kappa) VH: QVQLVESGGGVVQPGRSLRLSCAASGFTFSDYGMHWVRQAPGKGLEWVAYISSGGTTIYYADYVKGRFTISRDNSKNTLYLQMNSLRAEDTAVYYCARWTNLYAMDYWGQGTTVTVSS VL: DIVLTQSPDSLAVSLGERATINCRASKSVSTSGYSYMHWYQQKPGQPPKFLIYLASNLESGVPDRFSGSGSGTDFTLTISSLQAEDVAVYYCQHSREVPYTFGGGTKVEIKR , readout=IC50 (read off the curve)) returns ~0.2 µg/mL

get_value(item= H3_W99H_VL-par (antibody, V domains shown, Fc null human IgG1 / human kappa) VH: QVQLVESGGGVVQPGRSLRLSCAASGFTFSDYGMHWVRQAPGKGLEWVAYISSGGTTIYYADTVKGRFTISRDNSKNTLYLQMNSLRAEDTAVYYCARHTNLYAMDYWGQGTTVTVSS VL: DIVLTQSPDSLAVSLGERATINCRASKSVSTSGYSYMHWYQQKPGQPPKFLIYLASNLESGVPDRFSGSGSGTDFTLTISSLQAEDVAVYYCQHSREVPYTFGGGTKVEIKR , readout=IC50 (read off the curve)) returns ~0.06 µg/mL
